Study Target: FD2
Assay Overview: competition
Readout Name: Ki (µM)
Quick note: give the figure in µM, leave out the unit.

# lookup: Ki of NHERF-2 PDZ2 (N2P2) PDZ2, Q15599 (protein) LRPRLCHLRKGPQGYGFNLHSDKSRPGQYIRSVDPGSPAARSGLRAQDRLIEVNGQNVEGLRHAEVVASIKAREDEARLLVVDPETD
6.8

Reference source: paper PMC4970318
